- Assay protocol: reversed-phase LC retention time (C18, 15 min MeOH gradient); higher = more hydrophobic / later elution
- Assay context: ionization mode: ESI-; ion species: [M-H]-

| Compound | reversed-phase LC retention time [min] |
| --- | --- |
| Nc1cccc2cc(S(=O)(=O)O)ccc12 | 4.88 |
| O=S(=O)(O)c1cccc2ccc(O)cc12 | 7.16 |
| N#Cc1c(O)c(Cl)c(Cl)c(C#N)c1Cl [Chlorothalonil-4-hydroxy] | 11.8 |
| C[C@H](CCC(=O)O)[C@H]1CC[C@H]2[C@@H]3CC[C@@H]4C[C@H](O)CC[C@]4(C)[C@H]3C[C@H](O)[C@]12C | 15.8 |
| O=C1c2c(O)cc(O)cc2O[C@H](c2ccc(O)c(O)c2)[C@H]1O | 5.86 |
| Oc1cc(Cl)c(Cl)c(Cl)c1 | 14.7 |
| CO/C=C(/C(=O)O)c1ccccc1Oc1cc(Oc2ccccc2C#N)ncn1 | 11.5 |
| O=S(=O)(c1ccc(O)cc1)c1ccc(O)cc1 | 7.15 |
| O=C(O)C(F)(F)C(F)(F)C(F)(F)C(F)(F)C(F)(F)C(F)(F)C(F)(F)C(F)(F)C(F)(F)C(F)(F)C(F)(F)C(F)(F)C(F)(F)F | 17.6 |
| O=C(CCc1ccc(O)cc1)c1c(O)cc(O)cc1O | 10.6 |
| CCNc1nc(NCC)[nH]c(=O)n1 [Simazine 2-Hydroxy] | 8.55 |
| C[C@H](O)C(=O)Nc1c(I)c(C(=O)NC(CO)CO)c(I)c(C(=O)NC(CO)CO)c1I | 3.71 |
| O=C(O)C(F)(F)C(F)(F)C(F)(F)C(F)(F)C(F)(F)C(F)(F)C(F)(F)C(F)(F)C(F)(F)C(F)(F)C(F)(F)F | 17 |
| C[C@@H](CCC(=O)O)C1CCC2C3C(=O)CC4C[C@H](O)CC[C@]4(C)C3CC[C@@]21C (stereo partly drawn) | 14.3 |
| COc1cc2ccc(=O)oc2cc1O | 7.44 |
| O=C(O)c1cc(C(=O)O)cc([N+](=O)[O-])c1 | 0.96 |
| CC(C)(c1ccccc1)c1ccc(O)cc1 | 15.7 |
| CC(Cc1ccc(C(C)(C)C(=O)O)cc1)CN1CC(C)OC(C)C1 (stereo not drawn) | 14.3 |
| NS(=O)(=O)C(F)(F)C(F)(F)C(F)(F)C(F)(F)C(F)(F)C(F)(F)C(F)(F)C(F)(F)F [Perfluorooctanesulfonamide] | 15.7 |
| CC(Oc1ccc(Oc2nc3ccc(Cl)cc3o2)cc1)C(=O)O (stereo not drawn) | 13.9 |
| COc1nc(NC(=O)NS(=O)(=O)c2ccccc2C(F)(F)F)nc(C(F)(F)F)n1 | 11.8 |
| COc1nc(C)nc(NC(=O)NS(=O)(=O)c2ccccc2CCC(F)(F)F)n1 | 11.9 |
| Oc1ccc(C2(c3ccc(O)cc3)c3ccccc3-c3ccccc32)cc1 | 15.3 |
| CC1=CC(=O)NS(=O)(=O)O1 | 2.26 |
| O=S(=O)(O)C(F)(F)F | 1.37 |
| Nc1ccc(Oc2ccc(Cl)cc2Cl)cc1C(=O)O | 13.2 |
| Nc1cnn(-c2ccccc2)c(=O)c1Cl | 9.26 |
| COCC(=O)Nc1c(I)c(C(=O)NCC(O)CO)c(I)c(C(=O)N(C)CC(O)CO)c1I (stereo not drawn) [Iopromide] | 6.74 |
| CNC1=C(c2cccc(C(F)(F)F)c2)C(=O)C(c2ccccc2)O1 (stereo not drawn) | 14.2 |
| O=C(O)Cc1ccc(S(=O)(=O)O)cc1 | 0.96 |
| CCC[C@@H]1C[C@@H](C(=O)N[C@@H]([C@H]2O[C@H](SC)[C@H](O)[C@@H](O)[C@H]2O)[C@@H](C)O)N(C)C1 | 13.2 |
| O=C(O)C(F)(F)C(F)(F)C(F)(F)C(F)(F)C(F)(F)F | 12.6 |
| CCCCCCCCCCOS(=O)(=O)O [Decylsulfate] | 14.9 |
